biological target: Cytochrome P450 3A4 (Homo sapiens) (UniProt P08684); experiment: qHTS Assay for Inhibitors and Substrates of Cytochrome P450 3A4 (AID 884); conditions: recombinant CYP3A4, Luciferin-PPXE luminescence; series mostly up to 57.1 µM; also: nearly all actives have a fitted effect of over 50% in size
Sequence (P08684 whole entry, looked up): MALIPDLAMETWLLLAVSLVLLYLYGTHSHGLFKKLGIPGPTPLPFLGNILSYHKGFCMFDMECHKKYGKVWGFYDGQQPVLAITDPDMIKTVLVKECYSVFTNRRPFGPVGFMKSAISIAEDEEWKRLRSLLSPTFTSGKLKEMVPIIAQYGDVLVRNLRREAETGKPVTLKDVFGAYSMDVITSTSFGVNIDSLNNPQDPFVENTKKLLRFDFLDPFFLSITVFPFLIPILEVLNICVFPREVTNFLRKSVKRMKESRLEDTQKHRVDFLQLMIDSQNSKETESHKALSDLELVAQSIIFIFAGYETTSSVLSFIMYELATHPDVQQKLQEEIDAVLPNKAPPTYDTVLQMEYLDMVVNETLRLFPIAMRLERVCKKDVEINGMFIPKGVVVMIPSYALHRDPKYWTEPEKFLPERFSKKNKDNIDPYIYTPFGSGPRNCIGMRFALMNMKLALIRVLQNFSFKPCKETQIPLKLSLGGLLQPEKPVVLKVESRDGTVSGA
Records with an inconclusive call do not appear. Activity calls are given as the source filed them. Calls follow the shape of the dose curve; as a rule, active = well fitted inhibition curve with a large enough effect; inconclusive = small, poorly fitted or top-dose-only effect; inactive = no such curve, though single readings can be large or run the other way.
// classify into active, inactive

# count of solved cases: 4
[[record]]
compound = "COc1cc(-c2cc(=O)c3ccccc3o2)ccc1O"
target_entity = "Cytochrome P450 3A4 (Homo sapiens) (UniProt P08684)"
class_name = "active"

[[record]]
compound = "FC(F)(F)c1ccccc1-c1nc(Nc2ccncc2)c2ccccc2n1"
target_entity = "Cytochrome P450 3A4 (Homo sapiens) (UniProt P08684)"
class_name = "active"

[[record]]
compound = "COC(=O)[C@@]1(Cc2ccccc2)[C@H]2c3cc(C(=O)N4CCCC4)n(Cc4nc5ccccc5[nH]4)c3C[C@H]2CN1C(=O)c1ccccc1"
target_entity = "Cytochrome P450 3A4 (Homo sapiens) (UniProt P08684)"
class_name = "active"

[[record]]
compound = "CCC1OC(=O)C[C@H](O)C(C)[C@@H](O[C@@H]2OC(C)C(O)C(N(C)C)C2O)C(CCN2CC(C)CC(C)C2)CC(C)C(=O)/C=C/C(C)=C\\[C@@H]1COC1OC(C)C(O)C(OC)C1OC (some centres not stated)"
target_entity = "Cytochrome P450 3A4 (Homo sapiens) (UniProt P08684)"
class_name = "inactive"


Task: Recorded test call requested for Cc1ccc(CNC(=O)[C@H]2C[C@@H]2[C@H](NP(=O)(c2ccccc2)c2ccccc2)c2ccccc2)c(F)c1F
Output: active

Task: Recorded test call requested for C=C1C(=O)C=C2CN(C(=O)c3ccccc3)[C@@](Cc3ccc(F)cc3)(C(=O)OC)[C@@H]12
Output: active

Task: Recorded test call requested for O=C1OC2(c3cc(Br)c(O)c(Br)c3Oc3c2cc(Br)c(O)c3Br)c2c(Cl)c(Cl)c(Cl)c(Cl)c21
Output: active

----------
experiment: AP1 Signaling Pathway (AID 357); details: ME-180 (cervical carcinoma) AP-1-bla reporter, EGF-induced, beta-lactamase ratio, 5 h; at 17.2 µM (top of the series) unless noted;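 also: ME-180 reporter cells stimulated with EGF at its EC50 level; % is scaled to controls: 0 for no effect and ±100 for the full control effect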
Results filed as inconclusive are left out. Active and inactive are the calls of the source. Calls come from the whole dose curve; as a rule, active = well fitted curve in either direction with a large enough effect (not every such curve was filed as active); inconclusive = small, poorly fitted or top-dose-only effect, or another doubt; inactive = flat fitted curve, though single readings scatter.
Please respond with reported activity change, negative = inhibition for every item in the list.

[[record]]
compound = "COc1ccc(N2CCN(c3nc4c(c(=O)[nH]c(=O)n4C)n3CCCc3ccccc3)CC2)cc1"
result = "22% (inactive)"

[[record]]
compound = "O=C(c1cncc(Br)c1)N1CCCc2ccccc21"
result = "2.83% (inactive)"

[[record]]
compound = "N#Cc1nc(COc2ccccc2F)oc1NCCCn1ccnc1"
result = "-26.4% (inactive)"

[[record]]
compound = "CN1C(=O)N(c2ccccc2)C(Nc2nncs2)C1(C)C (stereo unspecified)"
result = "2.23% (inactive)"

[[record]]
compound = "COc1ccccc1C(=O)Nc1cc(Cl)ccc1O"
result = "-12.2% (inactive)"


# evaluate next
The reported value for COC(=O)C(NC(=O)c1ccc(F)cc1)(Nc1nc(C)cs1)C(F)(F)F (stereo unspecified) in terms of activity change, negative = inhibition is -0.49% (inactive)

----------
Please respond with reported caspase-3 activation for every item in the list.
experiment: Cellular Toxicity (caspase-3) H-4-II-E (AID 663); conditions: H-4-II-E rat hepatoma; at 92.2 µM (top of the series), scaled: DMSO 0%, 100 µM tamoxifen 100%;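 also: cells exposed to compound for 16 hr before readout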
Inconclusive results are not listed. Calls of active or inactive are those of the source. Calls come from the whole dose curve; as a rule, active = well fitted activation curve with a large enough effect; inconclusive = small, poorly fitted or top-dose-only effect; inactive = flat fitted curve, though single readings scatter.

Here is how some molecules turned out for caspase-3 activation.
[[record]]
structure_smiles_string = "CC/C(=C(\\c1ccccc1)c1ccc(OCCN(C)C)cc1)c1ccc(O)cc1"
property_name = "caspase-3 activation"
result = "124% (active)"

[[record]]
structure_smiles_string = "Oc1ccc2cc(SSc3ccc4cc(O)ccc4c3)ccc2c1"
property_name = "caspase-3 activation"
result = "4.17% (inactive)"

[[record]]
structure_smiles_string = "c1ccc2c(c1)-c1cccc3c1c-2cc1ccccc13"
property_name = "caspase-3 activation"
result = "11.1% (inactive)"

[[record]]
structure_smiles_string = "O=Cc1ccc(Cl)c(Cl)c1"
property_name = "caspase-3 activation"
result = "0.309% (inactive)"


# evaluate next
The reported value for Cc1ccc(S(=O)(=O)Oc2ccc(N=Nc3ccc(-c4ccc(N=Nc5c(O)ccc6cc(S(=O)(=O)O)cc(S(=O)(=O)O)c56)c(C)c4)cc3C)cc2)cc1 in terms of caspase-3 activation is -0.204% (inactive)
